- TEST SYSTEM: Mitogen-activated protein kinase kinase kinase 9 (Homo sapiens) (UniProt P80192)
- Sequence (P80192 whole entry, looked up): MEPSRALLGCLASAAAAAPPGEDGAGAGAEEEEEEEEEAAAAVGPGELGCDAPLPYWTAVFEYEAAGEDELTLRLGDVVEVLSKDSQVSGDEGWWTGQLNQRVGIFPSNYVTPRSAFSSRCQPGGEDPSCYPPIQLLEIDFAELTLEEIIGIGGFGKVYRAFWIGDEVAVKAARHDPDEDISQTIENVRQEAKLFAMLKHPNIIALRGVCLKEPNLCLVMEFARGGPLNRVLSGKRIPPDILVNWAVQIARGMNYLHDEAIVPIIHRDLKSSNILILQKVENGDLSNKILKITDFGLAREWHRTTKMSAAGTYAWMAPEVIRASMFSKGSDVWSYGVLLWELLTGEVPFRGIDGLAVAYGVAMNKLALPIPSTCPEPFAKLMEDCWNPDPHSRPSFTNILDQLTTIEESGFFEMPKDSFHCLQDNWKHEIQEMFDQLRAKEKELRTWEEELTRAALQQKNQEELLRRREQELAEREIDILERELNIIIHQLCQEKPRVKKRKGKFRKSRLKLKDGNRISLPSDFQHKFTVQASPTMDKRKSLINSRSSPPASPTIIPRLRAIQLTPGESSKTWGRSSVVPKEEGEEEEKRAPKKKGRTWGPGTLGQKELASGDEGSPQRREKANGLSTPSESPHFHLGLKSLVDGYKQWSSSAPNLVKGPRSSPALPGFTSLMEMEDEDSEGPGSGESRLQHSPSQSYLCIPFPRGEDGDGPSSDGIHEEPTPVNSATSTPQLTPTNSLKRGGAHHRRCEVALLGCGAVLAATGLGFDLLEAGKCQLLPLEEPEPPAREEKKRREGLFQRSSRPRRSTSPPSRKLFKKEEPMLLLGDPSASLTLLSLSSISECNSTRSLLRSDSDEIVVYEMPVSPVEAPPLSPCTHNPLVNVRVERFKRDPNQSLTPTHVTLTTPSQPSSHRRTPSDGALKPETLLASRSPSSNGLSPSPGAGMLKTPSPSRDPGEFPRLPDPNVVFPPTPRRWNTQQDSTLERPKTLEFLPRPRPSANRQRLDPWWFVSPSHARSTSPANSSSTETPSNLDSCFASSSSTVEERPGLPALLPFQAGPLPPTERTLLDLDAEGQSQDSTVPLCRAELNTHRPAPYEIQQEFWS
- ASSAY SETUP: at 10 µM
Hi there, I'd appreciate the recorded residual activity for every entry that follows.

Worked cases, residual activity given:
COMPOUND	residual activity
COc1cc2ncnc(Nc3ccc(O)c(Br)c3)c2cc1OC	11%
Cn1cc(/C=C2\C(=O)Nc3ccc(S(N)(=O)=O)cc32)c2ccccc21	3%
O=C(O)c1ccc2c3c1cccc3c(=O)n1c3ccccc3nc21	5%
CO[C@@H]1[C@H](N(C)C(=O)c2ccccc2)C[C@H]2O[C@]1(C)n1c3ccccc3c3c4c(c5c6ccccc6n2c5c31)C(=O)NC4	1%

Now consider the entry below.
residual activity reported for this compound O=C1Nc2ccccc2/C1=C1/Nc2ccccc2/C1=N\OCCC(O)CO (stereo not given) : 2%

###

Exercise: state measured residual activity for each of the compounds provided.
- TEST SYSTEM: Rhodopsin kinase GRK7 (Homo sapiens)
- ASSAY SETUP: at 1 µM
Numbers only, in %.

# map each compound to its residual activity
1. COc1ccc(S(=O)(=O)N(CCO)c2ccccc2CN(C)C/C=C/c2ccc(Cl)cc2)cc1
2. O=C1NC(=O)/C(=C\c2ccc3nccnc3c2)S1

A.
[99, 87]

Hey, quick one: what's residual activity for each of these?
1. O=c1c2ccccc2[nH]c(=S)n1CCN1CCC(=C(c2ccc(F)cc2)c2ccc(F)cc2)CC1
2. O=Nc1c(-c2c(O)[nH]c3ccccc23)[nH]c2ccccc12
3. Cc1nc(-c2ccccc2)c(-c2ccncc2)o1
4. CC#CC(=O)Nc1cc2c(Nc3ccc(F)c(Cl)c3)ncnc2cn1
5. O=C1NC(=O)c2cc(Nc3ccc(F)cc3)c(Nc3ccc(F)cc3)cc21
6. CC(=O)O/N=C1\C(=C2\C(=O)Nc3cc(Br)ccc32)Nc2ccccc21
7. N#C/C(=C(\N)Sc1ccc(N)cc1)c1ccccc1C(F)(F)F
8. Cn1nc2c3c(cccc31)C(=O)c1ccccc1-2

A.
1. 93
2. 73
3. 105
4. 98
5. 93
6. 106
7. 97
8. 92

// field: residual activity; key: "Cn1cc(/C=C2\C(=O)Nc3ccc(S(N)(=O)=O)cc32)c2ccccc21" ; value = 14

###

- TEST SYSTEM: High affinity nerve growth factor receptor (Homo sapiens)
- ASSAY SETUP: at 1 µM
Could you please report measured residual activity for the items listed next?
Give bare numbers, in %.

Known residual activity results, listed for orientation:
SMILES	residual activity (%)
O=C1NC(=O)c2c1c1c3ccccc3[nH]c1c1[nH]c3cc(Br)ccc3c21	37
Cn1cc(/C=C2\C(=O)Nc3ccc(S(N)(=O)=O)cc32)c2ccccc21	1
Cn1cnc2cc3c(Nc4cccc(Br)c4)ncnc3cc21	87
N#CC(C#N)=C(N)/C(C#N)=C/c1ccc(O)cc1	121

Give measured residual activity for every item shown.
1. c1ccc2c(-c3ccncc3)c[nH]c2c1
2. CC[n+]1c(/C=C/N(C)c2ccccc2)n(-c2ccccc2)c2ccc(-c3nc4ccccc4s3)cc21
3. O=C(Nc1cccc(Nc2cc(Nc3cccc(C(F)(F)F)c3)ncn2)c1)C1CC1
4. CNc1cc2c(Nc3cccc(Br)c3)ncnc2cn1
5. Nc1nc(Nc2ccc(S(N)(=O)=O)cc2)nn1C(=S)Nc1c(F)cccc1F
6. c1ccc(-c2n[nH]cc2-c2ccnc3ccccc23)nc1
7. Cc1ccc(S(=O)(=O)/C=C/C#N)cc1

A.
1: 91; 2: 85; 3: 68; 4: 69; 5: 0; 6: 72; 7: 105

###

Kindly state residual activity for each of the entries shown.
- TEST SYSTEM: Death-associated protein kinase 2 (Homo sapiens) (UniProt Q9UIK4)
- Sequence (Q9UIK4 whole entry, looked up): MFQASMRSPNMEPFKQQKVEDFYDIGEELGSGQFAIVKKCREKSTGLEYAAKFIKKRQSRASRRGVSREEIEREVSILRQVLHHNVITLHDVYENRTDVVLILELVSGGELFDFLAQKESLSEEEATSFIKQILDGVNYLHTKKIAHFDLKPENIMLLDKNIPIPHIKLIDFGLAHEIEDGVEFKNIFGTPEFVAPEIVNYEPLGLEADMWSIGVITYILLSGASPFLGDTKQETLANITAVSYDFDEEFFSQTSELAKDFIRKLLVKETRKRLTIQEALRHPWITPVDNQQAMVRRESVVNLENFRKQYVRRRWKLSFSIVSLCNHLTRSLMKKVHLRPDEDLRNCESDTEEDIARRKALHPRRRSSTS
- ASSAY SETUP: at 10 µM

# example entries with known answers
SMILES	residual activity
O=c1c2ccccc2[nH]c(=S)n1CCN1CCC(=C(c2ccc(F)cc2)c2ccc(F)cc2)CC1	104%
CCOc1cc2ncnc(Nc3cccc(Br)c3)c2cc1OCC	102%
CN(C)c1ccc(/C=C2\C(=O)Nc3ccccc32)cc1	88%
CO[C@H]1[C@@H](OC)C[C@H](C)[C@@H](OC)C2=CC(=O)C=C(NC(=O)/C(C)=C/C=C/[C@H](OC)[C@@H](OC(N)=O)/C(C)=C/[C@@H]1C)C2=O	114%
Oc1ccc(Nc2nc(-c3ccc(Cl)cc3)cs2)cc1	107%
N#CC(C#N)=C(N)/C(C#N)=C/c1ccc(O)cc1	97%
COc1cccc(-c2cc(=O)c3ccccc3o2)c1N	99%
O=C1NC(=O)/C(=C\c2ccc3nccnc3c2)S1	27%
CC#CC(=O)Nc1cc2c(Nc3ccc(F)c(Cl)c3)ncnc2cn1	104%

Now consider the entry below.
Quick note, residual activity for "O=C1c2ccccc2-[n+]2ccc3c([nH]c4ccccc43)c21" landed at 96%

###

So I've got a bunch of molecules here, and I need their residual activity values.
- TEST SYSTEM: Tyrosine-protein kinase Fyn (Homo sapiens) (UniProt P06241)
- Sequence (P06241 2-537 limits assumed): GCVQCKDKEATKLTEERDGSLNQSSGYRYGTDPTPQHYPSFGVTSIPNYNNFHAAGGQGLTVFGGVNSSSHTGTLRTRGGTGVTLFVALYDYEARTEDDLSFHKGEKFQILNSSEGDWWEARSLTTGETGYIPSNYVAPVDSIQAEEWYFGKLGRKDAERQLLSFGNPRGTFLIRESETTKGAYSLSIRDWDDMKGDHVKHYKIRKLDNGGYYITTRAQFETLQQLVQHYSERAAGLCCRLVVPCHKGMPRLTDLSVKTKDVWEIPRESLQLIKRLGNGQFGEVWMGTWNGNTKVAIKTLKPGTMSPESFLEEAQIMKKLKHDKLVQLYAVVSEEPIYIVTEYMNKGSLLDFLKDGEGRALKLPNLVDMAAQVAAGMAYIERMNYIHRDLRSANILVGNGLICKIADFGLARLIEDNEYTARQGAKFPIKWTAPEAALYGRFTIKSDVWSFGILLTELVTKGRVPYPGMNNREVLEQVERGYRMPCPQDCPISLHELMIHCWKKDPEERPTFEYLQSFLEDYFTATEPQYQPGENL
- ASSAY SETUP: at 1 µM
Give bare numbers, in %.

Please review the entries below; each comes with its answer.
SMILES	EXPERIMENTAL RESULT
c1ccc(-c2n[nH]cc2-c2ccnc3ccccc23)nc1	94
CCN(CC)CCCCN1c2ccccc2Oc2ccc(Cl)cc21	102
Cc1cc2ncc(-c3ccccc3)nc2cc1C	98
CC(C)n1cnc2/c(=N/c3cccc(Cl)c3)nc(NCCO)[nH]c21	21
CO[C@H]1[C@@H](OC)C[C@H](C)[C@@H](OC)C2=CC(=O)C=C(NC(=O)/C(C)=C/C=C/[C@H](OC)[C@@H](OC(N)=O)/C(C)=C/[C@@H]1C)C2=O	88

Items follow; give residual activity for each.
1. CCN(CC)C(=O)c1ccc(Nc2nc(OCC3CCCCC3)c3nc[nH]c3n2)cc1
2. N#CCCc1ccc2c(c1)-c1[nH]c3ccc([N+](=O)[O-])cc3c1CC(=O)N2
3. Oc1ccc(Nc2nc(-c3ccc(Cl)cc3)cs2)cc1
4. Nc1ccc2ncnc(NCCc3ccc(Oc4ccccc4)cc3)c2c1
5. O=C1NC(=O)/C(=C/c2ccc3c(c2)OC(F)(F)O3)S1

A.
1. 35
2. 17
3. 87
4. 75
5. 93

###

- TEST SYSTEM: Mitogen-activated protein kinase kinase kinase 9 (Homo sapiens)
- ASSAY SETUP: at 1 µM
ASSAY METRIC: residual activity (%)
Give bare numbers, in %.

Solved cases below.
SMILES	OUTPUT UNIT	EXPERIMENTAL RESULT
Oc1n[nH]c2nnc(-c3c(-c4ccccc4)nn4ccccc34)cc12	%	89
O=c1c2ccccc2[nH]c(=S)n1CCN1CCC(=C(c2ccc(F)cc2)c2ccc(F)cc2)CC1	%	92
N#CCCc1ccc2c(c1)-c1[nH]c3ccc([N+](=O)[O-])cc3c1CC(=O)N2	%	7
CN(C)c1ccc(/C=C2\C(=O)Nc3ccccc32)cc1	%	39
Cc1ccc(S(=O)(=O)/C=C/C#N)cc1	%	97
COc1cc2ncnc(N3CCN(C(=O)Nc4ccc(Oc5ccccc5)cc4)CC3)c2cc1OC	%	87
O=C(O)c1ccc2c3c1cccc3c(=O)n1c3ccccc3nc21	%	33
N#C/C(=C(\N)Sc1ccc(N)cc1)c1ccccc1C(F)(F)F	%	93

Value sought for every listed compound: residual activity.
1. CO[C@H]1C[C@@H]2CC[C@@H](C)[C@@](O)(O2)C(=O)C(=O)N2CCCC[C@H]2C(=O)O[C@H]([C@H](C)C[C@@H]2CC[C@@H](O)[C@H](OC)C2)CC(=O)[C@H](C)/C=C(\C)[C@@H](O)[C@@H](OC)C(=O)[C@H](C)C[C@H](C)/C=C/C=C/C=C/1C
2. Cn1cc(/C=C2\C(=O)Nc3ccc(S(N)(=O)=O)cc32)c2ccccc21
3. O=C1Nc2cc(Br)ccc2/C1=C1/Nc2ccccc2/C1=N\O

A.
1. 91
2. 6
3. 21

###

- TEST SYSTEM: RAF proto-oncogene serine/threonine-protein kinase (Homo sapiens)
- ASSAY SETUP: at 10 µM
# label = 1 (yes) if residual activity >= 60% else 0 (no)

SMILES	CATEGORY
COc1cccc(-c2cc(=O)c3ccccc3o2)c1N	1 (yes)

Q. Dear colleague, could you confirm whether "C[C@@H](N)[C@H]1CC[C@H](C(=O)Nc2ccncc2)CC1" has residual activity at or above 60%?
A. 1 (yes)

Q. In plain terms: is recorded residual activity at least 60% for "O=[N+]([O-])c1ccc(-c2nc(-c3ccc(F)cc3)c(-c3ccncc3)[nH]2)cc1" ?
A. 0 (no)

Q. Does the reported residual activity for "Nc1n[nH]c2nnc(-c3c(-c4ccccc4)nn4ccccc34)cc12" fall at or above the 60% mark?
A. 1 (yes)

Q. Could you tell me if the measured residual activity of "O=c1cc(-c2cccc3c2Sc2ccccc2S3)oc(N2CCOCC2)c1" reaches 60% or more?
A. 0 (no)
